pIC50: −log10 of the molar value.
Study the reported pIC50 values for bovine cerebral TPK1 (Bos taurus) given below; they originate from different publications.
ATTRIBUTE_MEASURED: pIC50

>>> reported_measurement("CC(=O)Nc1cccc([C@H]2CN(c3nc(-c4ccncc4F)cc(=O)n3C)CCO2)c1")
8.39
>>> reported_measurement("COc1ccc(NC(C)=O)cc1[C@H]1CN(c2nc(-c3ccncc3F)cc(=O)n2C)CCO1")
9.32
>>> reported_measurement("Cn1c(N2CC3CCC2C(c2ccccc2)C3)nc(-c2ccncc2)cc1=O (centres unmarked)")
8.92
>>> reported_measurement("Cn1c(N2CCC=C(c3ccccc3C(F)(F)F)C2)nc(-c2ccncn2)cc1=O")
8.59
>>> reported_measurement("Cc1cccc(-c2nc(-c3ccncc3)cc(=O)[nH]2)c1")
5.66
>>> reported_measurement("COc1cccc2cc(C3CN(c4nc(-c5ccncn5)cc(=O)n4C)CCO3)oc12 (centres unmarked)")
8.37
>>> reported_measurement("COc1cc(F)ccc1C1CN(c2nc(-c3ccncc3)cc(=O)n2C)CCO1 (centres unmarked)")
8.92
>>> reported_measurement("Cn1c(N2CCOC(c3cccc(Br)c3)C2)nc(-c2ccncc2)cc1=O (centres unmarked)")
8.72
>>> reported_measurement("COc1cc(-c2ccccc2)ccc1C1CN(c2nc(-c3ccncn3)cc(=O)n2C)CCO1 (centres unmarked)")
8.85
>>> reported_measurement("Cn1c(N2CCCC(C#N)(c3ccccc3)C2)nc(-c2ccncc2)cc1=O (centres unmarked)")
6.64
>>> reported_measurement("Cn1c(N2CCC=C(c3ccsc3)C2)nc(-c2ccncn2)cc1=O")
7.77
>>> reported_measurement("O=c1cc(-c2ccncc2)nc(-c2cccnc2)[nH]1")
5.64
>>> reported_measurement("COc1cccc(OC)c1[C@@H]1CN(c2nc(-c3ccncn3)cc(=O)n2C)CCO1")
8.35
>>> reported_measurement("CN(C)C(=O)Nc1ccc([C@H]2CN(c3nc(-c4ccncc4)cc(=O)n3C)CCO2)cc1")
8.01
>>> reported_measurement("Cn1c(N2CCC=C(c3noc4ccccc34)C2)nc(-c2ccncn2)cc1=O")
8.29
>>> reported_measurement("Cn1c(N2CCOC3(CCCOc4ccccc43)C2)nc(-c2ccncn2)cc1=O (centres unmarked)")
7.59
>>> reported_measurement("Cn1c(N2CCNC(c3ccccc3)C2)nc(-c2ccncc2)cc1=O (centres unmarked)")
7.74
